Each entry below carries its reported pIC50.
# TARGET_SYSTEM: Lck (Homo sapiens, UniProt P06239)
# Sequence (P06239 whole entry, species assumed): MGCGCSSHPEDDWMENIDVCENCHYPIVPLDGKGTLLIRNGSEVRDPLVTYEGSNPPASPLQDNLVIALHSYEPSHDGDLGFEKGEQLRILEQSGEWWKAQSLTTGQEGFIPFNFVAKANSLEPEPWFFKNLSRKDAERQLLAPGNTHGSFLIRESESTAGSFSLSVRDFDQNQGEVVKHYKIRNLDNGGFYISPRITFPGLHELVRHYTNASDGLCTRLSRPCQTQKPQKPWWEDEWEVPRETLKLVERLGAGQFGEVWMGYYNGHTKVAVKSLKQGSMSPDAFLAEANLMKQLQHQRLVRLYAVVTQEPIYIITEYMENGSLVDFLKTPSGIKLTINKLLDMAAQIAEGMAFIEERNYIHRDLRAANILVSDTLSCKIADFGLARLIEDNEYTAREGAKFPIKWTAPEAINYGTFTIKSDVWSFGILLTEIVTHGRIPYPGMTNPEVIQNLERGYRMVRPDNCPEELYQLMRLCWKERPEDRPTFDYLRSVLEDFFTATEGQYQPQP
# TEST_NAME: Lck kinase activity, TR-FRET assay
# Format: biochemical
# ASSAY_CONDITIONS: read-out: LCK (IC50)
pIC50: −log10 of the molar value.

COMPOUND | TARGET_SYSTEM | pIC50
CN(C)C/C=C/C(=O)N1CC[C@@H](Nc2n[nH]c3nccc(Oc4cccc(Nc5ccncn5)c4)c23)C1 [compound 20] | Lck (Homo sapiens, UniProt P06239) | < 5.00
Cc1ccnc(NC(=O)c2ccc(Oc3ccnc4[nH]nc(N[C@@H]5CCN(C#N)C5)c34)cc2)c1 [compound 275] | Lck (Homo sapiens, UniProt P06239) | 6.00 to 7.00
C=CC(=O)N1CCC[C@@H](Nc2n[nH]c3nccc(Oc4ccc(C(=O)Nc5nc(C)c(C)s5)cc4)c23)C1 [compound 146] | Lck (Homo sapiens, UniProt P06239) | 6.00 to 7.00
Cc1csc(NC(=O)c2ccc(Oc3ccnc4[nH]nc(N[C@@H]5CCCN(C(=O)/C=C/CN(C)C6CC6)C5)c34)cc2)n1 [compound 139] | Lck (Homo sapiens, UniProt P06239) | < 5.00

###

# TARGET_SYSTEM: Lck (Homo sapiens, UniProt P06239)
# TEST_NAME: Lck kinase activity, TR-FRET assay
# Format: biochemical
# ASSAY_CONDITIONS: read-out: LCK (IC50)
Below, each entry is listed alongside its reported IC50.
VALUE_TYPE: IC50

COMPOUND | TARGET_SYSTEM | VALUE_TYPE | RECORDED_VALUE
Cc1ccnc(NC(=O)c2ccc(Oc3ccnc4[nH]nc(N[C@@H]5CCCN(C(=O)c6nccs6)C5)c34)cc2)c1 | Lck (Homo sapiens, UniProt P06239) | IC50 | 100 to 1000 nM
CC1(C(=O)N2CCC[C@@H](Nc3n[nH]c4nccc(Oc5ccc(C(=O)Nc6nc7ccccc7s6)cc5)c34)C2)COC1 | Lck (Homo sapiens, UniProt P06239) | IC50 | 100 to 1000 nM
CN(C/C=C/C(=O)N1CC[C@@H](Nc2n[nH]c3nccc(Oc4ccc(C(=O)Nc5ccccn5)cc4)c23)C1)C1CC1 | Lck (Homo sapiens, UniProt P06239) | IC50 | 1000 to 10000 nM
Cc1nc(NC(=O)c2ccc(Oc3ccnc4[nH]nc(N[C@@H]5CCCN(C(=O)/C=C/CN(C)C6CC6)C5)c34)cc2)sc1C | Lck (Homo sapiens, UniProt P06239) | IC50 | 1000 to 10000 nM
CC(=O)N1CC[C@@H](Nc2n[nH]c3nccc(Oc4cccc(C(=O)Nc5ccc(C(C)C)c(C)c5)c4)c23)C1 | Lck (Homo sapiens, UniProt P06239) | IC50 | < 100 nM
CCC(=O)N1CC[C@@H](Nc2n[nH]c3nccc(Oc4ccc(C(=O)Nc5nc6ccccc6[nH]5)cc4)c23)C1 | Lck (Homo sapiens, UniProt P06239) | IC50 | 100 to 1000 nM
CNC(=O)C(=O)N1CCC[C@@H](Nc2n[nH]c3nccc(Oc4ccc(C(=O)Nc5cc(C)ccn5)cc4)c23)C1 | Lck (Homo sapiens, UniProt P06239) | IC50 | 100 to 1000 nM
CN(C/C=C/C(=O)N1CC[C@@H](Nc2n[nH]c3nccc(Oc4ccc(C(=O)Nc5ccncn5)cc4)c23)C1)C1CC1 | Lck (Homo sapiens, UniProt P06239) | IC50 | > 10000 nM
CCC(=O)N1CC[C@@H](Nc2n[nH]c3nccc(Oc4ccc(C(=O)Nc5cc(C(F)(F)F)ccn5)cc4)c23)C1 | Lck (Homo sapiens, UniProt P06239) | IC50 | 100 to 1000 nM
Cc1ccnc(NC(=O)c2ccc(Oc3ccnc4[nH]nc(N[C@@H]5CCCN(C(=O)C6(C)CCOCC6)C5)c34)cc2)c1 | Lck (Homo sapiens, UniProt P06239) | IC50 | 1000 to 10000 nM
Cc1ccnc(NC(=O)c2ccc(Oc3ccnc4[nH]nc(N[C@@H]5CCCN(C(=O)[C@@H]6CCCO6)C5)c34)cc2)c1 (single isomer, unassigned) [compound 94] | Lck (Homo sapiens, UniProt P06239) | IC50 | 100 to 1000 nM
CCNC(=O)N1CCC[C@@H](Nc2n[nH]c3nccc(Oc4ccc(C(=O)Nc5cc(C#N)ccn5)cc4)c23)C1 | Lck (Homo sapiens, UniProt P06239) | IC50 | 100 to 1000 nM
C=CC(=O)N1CCC[C@@H](Nc2n[nH]c3nccc(Oc4ccc(Oc5ccccc5)c(C)c4)c23)C1 | Lck (Homo sapiens, UniProt P06239) | IC50 | 100 to 1000 nM

###

# TARGET_SYSTEM: Btk (Homo sapiens, UniProt Q06187)
# Sequence (Q06187 whole entry): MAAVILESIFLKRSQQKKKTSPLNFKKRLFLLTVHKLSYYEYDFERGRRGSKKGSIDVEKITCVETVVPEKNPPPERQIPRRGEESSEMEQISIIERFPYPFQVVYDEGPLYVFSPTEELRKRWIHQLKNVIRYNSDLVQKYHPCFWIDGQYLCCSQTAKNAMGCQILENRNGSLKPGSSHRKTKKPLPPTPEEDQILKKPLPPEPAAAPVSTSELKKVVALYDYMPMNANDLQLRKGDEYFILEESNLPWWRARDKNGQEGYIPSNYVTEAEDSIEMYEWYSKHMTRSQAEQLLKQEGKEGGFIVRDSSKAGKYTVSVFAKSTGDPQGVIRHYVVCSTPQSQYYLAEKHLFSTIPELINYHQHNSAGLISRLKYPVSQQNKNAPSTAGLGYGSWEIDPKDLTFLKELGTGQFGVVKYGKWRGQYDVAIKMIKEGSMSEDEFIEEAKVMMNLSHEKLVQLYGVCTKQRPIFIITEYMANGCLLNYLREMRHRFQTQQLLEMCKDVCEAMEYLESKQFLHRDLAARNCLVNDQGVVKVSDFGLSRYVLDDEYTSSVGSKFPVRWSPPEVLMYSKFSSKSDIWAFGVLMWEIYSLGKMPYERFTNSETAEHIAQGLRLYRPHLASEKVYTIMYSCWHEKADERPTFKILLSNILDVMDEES
# TEST_NAME: Btk kinase activity, TR-FRET assay
# Assay type: biochemical
# ASSAY_CONDITIONS: read-out: Btk (IC50)
pIC50: −log10 of the molar value.

SMILES_STR | pIC50
CC#CC(=O)N1CCC[C@@H](Nc2n[nH]c3nccc(Oc4ccc(C(=O)Nc5nnc(C)s5)cc4)c23)C1 | 5.00 to 6.00
CNC(=O)/C(F)=C/c1cccc(Nc2n[nH]c3nccc(Oc4ccc(Oc5ccccc5)cc4)c23)c1 | 6.00 to 7.00
CC(=O)N1CC[C@@H](Nc2n[nH]c3nccc(Oc4ccc(Oc5ccccc5)cc4)c23)C1 | > 7.00
CCC(=O)N1CC[C@@H](Nc2n[nH]c3nccc(Oc4ccc(C(=O)Nc5ncc(C)s5)cc4)c23)C1 | > 7.00
CC#CC(=O)N1CCC[C@@H](Nc2n[nH]c3nccc(Oc4ccc(C(=O)Nc5nc(C)c(C)s5)cc4)c23)C1 | > 7.00
C=CC(=O)N1CCC[C@@H](Nc2n[nH]c3nccc(Oc4ccc(-c5nc6ncccc6o5)cc4)c23)C1 | 6.00 to 7.00
Cc1cnc(NC(=O)c2ccc(Oc3ccnc4[nH]nc(N[C@@H]5CCN(C(=O)C6CC6)C5)c34)cc2)s1 | > 7.00

###

Collected IC50 values appear next to each entry.
# TARGET_SYSTEM: JAK3 (Homo sapiens)
# Sequence (P52333 1-1124): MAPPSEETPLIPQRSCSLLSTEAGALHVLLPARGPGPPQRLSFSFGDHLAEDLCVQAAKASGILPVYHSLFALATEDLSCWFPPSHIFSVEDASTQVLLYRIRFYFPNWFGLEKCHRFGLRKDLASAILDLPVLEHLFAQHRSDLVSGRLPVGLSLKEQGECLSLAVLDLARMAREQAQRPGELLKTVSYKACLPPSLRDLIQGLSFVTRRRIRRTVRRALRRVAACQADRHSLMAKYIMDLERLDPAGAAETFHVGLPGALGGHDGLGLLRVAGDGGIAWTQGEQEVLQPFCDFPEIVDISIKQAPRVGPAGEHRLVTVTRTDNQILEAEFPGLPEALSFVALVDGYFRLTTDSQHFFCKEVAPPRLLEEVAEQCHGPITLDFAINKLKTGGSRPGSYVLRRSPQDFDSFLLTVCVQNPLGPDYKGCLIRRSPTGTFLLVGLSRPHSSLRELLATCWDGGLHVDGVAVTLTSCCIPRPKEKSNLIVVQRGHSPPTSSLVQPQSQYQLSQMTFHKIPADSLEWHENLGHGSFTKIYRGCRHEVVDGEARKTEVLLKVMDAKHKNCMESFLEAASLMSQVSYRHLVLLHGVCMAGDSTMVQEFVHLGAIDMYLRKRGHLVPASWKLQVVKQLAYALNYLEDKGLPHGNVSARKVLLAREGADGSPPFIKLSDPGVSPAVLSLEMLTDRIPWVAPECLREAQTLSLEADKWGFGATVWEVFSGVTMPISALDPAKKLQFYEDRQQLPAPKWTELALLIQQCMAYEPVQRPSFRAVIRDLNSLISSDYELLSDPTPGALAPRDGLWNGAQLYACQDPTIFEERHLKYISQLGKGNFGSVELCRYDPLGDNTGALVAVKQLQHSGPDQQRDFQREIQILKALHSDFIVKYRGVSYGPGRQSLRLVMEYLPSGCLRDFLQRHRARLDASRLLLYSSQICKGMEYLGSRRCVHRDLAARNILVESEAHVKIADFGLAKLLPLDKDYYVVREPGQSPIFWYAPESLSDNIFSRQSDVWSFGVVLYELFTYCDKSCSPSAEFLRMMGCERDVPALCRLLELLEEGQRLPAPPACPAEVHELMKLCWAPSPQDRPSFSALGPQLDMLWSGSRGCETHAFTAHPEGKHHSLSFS

SMILES_STR | TARGET_SYSTEM | IC50
CC#CC(=O)N1CCC[C@@H](Nc2n[nH]c3nccc(Oc4ccc(C(=O)Nc5cc(C)ccn5)cc4)c23)C1 | JAK3 (Homo sapiens) | > 10 µM
CN1CCc2sc(NC(=O)c3ccc(Oc4ccnc5[nH]nc(N[C@@H]6CCCN(C(=O)/C=C/CN(C)C7CC7)C6)c45)cc3)nc2C1 | JAK3 (Homo sapiens) | > 10 µM
C=CC(=O)N1CCC[C@@H](Nc2n[nH]c3nccc(Oc4ccc(-c5ncc(C)s5)cc4)c23)C1 | JAK3 (Homo sapiens) | 1 to 10 µM
C=CC(=O)N1CCC[C@@H](Nc2n[nH]c3nccc(Oc4cccc(-c5ncc(C)s5)c4)c23)C1 | JAK3 (Homo sapiens) | 1 to 10 µM
CN(C)C/C=C/C(=O)N(C)[C@H]1CC[C@@H](Nc2n[nH]c3nccc(Oc4cccc(Oc5ccccc5)c4)c23)CC1 | JAK3 (Homo sapiens) | 0.1 to 1 µM
CCNC(=O)N1CCC[C@@H](Nc2n[nH]c3nccc(Oc4ccc(-c5nc6ccccc6[nH]5)cc4)c23)C1 | JAK3 (Homo sapiens) | > 10 µM
Cc1ccnc(NC(=O)c2ccc(Oc3ccnc4[nH]nc(N[C@@H]5CCN(C(=O)C6(C#N)CC6)C5)c34)cc2)c1 | JAK3 (Homo sapiens) | > 10 µM
